tested_on: cyanuric acid hydrolase from M. thermoacetica (Moorella thermoacetica, UniProt Q2RGM7)
Construct: ORF Moth—2120 from M. thermoacetica ATCC 39073 was PCR amplified; His-tag (from pET28b+, cloned NdeI/HindIII) (N); made in house; host or cells: E. coli BRL21(DE3) pLysS, vector pET28b+::Moth_2120
Sequence (Q2RGM7 whole entry): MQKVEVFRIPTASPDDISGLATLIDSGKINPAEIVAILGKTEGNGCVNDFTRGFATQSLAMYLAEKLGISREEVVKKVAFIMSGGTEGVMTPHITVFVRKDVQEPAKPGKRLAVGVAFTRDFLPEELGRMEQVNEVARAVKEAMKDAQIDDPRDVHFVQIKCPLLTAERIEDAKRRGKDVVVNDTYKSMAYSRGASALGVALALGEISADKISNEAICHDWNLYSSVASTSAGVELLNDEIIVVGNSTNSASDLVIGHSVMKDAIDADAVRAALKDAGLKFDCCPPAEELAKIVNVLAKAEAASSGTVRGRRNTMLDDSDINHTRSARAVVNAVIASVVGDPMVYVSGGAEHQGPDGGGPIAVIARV
Type: biochemical, Moorella thermoacetica ATCC 39073
recorded_conditions: metal salt 0.2 mM
Below, each entry is listed with its recorded Relative activity.
measurement_name: Relative activity

* O=S(=O)([O-])[O-].[Mn+2] [MnSO4] | 96
* O=S(=O)([O-])[O-].[Zn+2] [ZnSO4] | 51
* [Cl][Cu][Cl] [CuCl2] | 83
* [Cl][Ni][Cl] [NiCl2] | 79
* [Cl][Fe]([Cl])[Cl] [FeCl3] | 105
